- Tested on: MCF7
- Test Details: Antiproliferative activity against human MCF7 cells assessed as reduction in cell proliferation measured after 5 days by Cell-titer-Glo assay
- Type: functional, cell-based
- Stated Conditions: MCF7, 120 h
Could you mark each record Y if its IC50 falls strictly under 10 nM, and N if it equals or exceeds it?

| Substance Smiles | Cat |
| --- | --- |
| CC/C(=C(/c1ccc(/C=C/C(=O)O)cc1)c1ccc(N2CCCCC2)cc1)c1ccccc1 | N |
| N#Cc1ccc(/C(=C(\c2ccc(/C=C/C(=O)O)cc2)c2ccc(-c3cncs3)cc2)C2CCC2)c(Cl)c1 | Y |
| CC/C(=C(/c1ccc(/C=C/C(=O)O)cc1)c1ccc2scnc2c1)c1ccccc1 | N |
| N#Cc1cc(Cl)ccc1/C(=C(\c1ccc(/C=C/C(=O)O)cc1)c1ccc(N2CCOCC2)cc1)C1CCC1 | N |
| N#Cc1cc(Cl)ccc1/C(=C(\c1ccc(/C=C/C(=O)O)cc1)c1ccc(-c2cncs2)cc1)C1CCC1 | Y |
| O=C(O)/C=C/c1ccc(/C(=C(\c2ccc(C(F)(F)F)cc2Cl)C2CCC2)c2ccc(N3CCOCC3)cc2)cc1 | Y |

* * *

- Test system: MCF7
- Test Details: Antiproliferative activity against human MCF7 cells assessed as reduction in cell proliferation measured after 5 days by Cell-titer-Glo assay
- Assay type: functional, cell-based
- Stated Conditions: MCF7, 120 h
pIC50: −log10 of the molar value.
// False strictly below 8 in pIC50; True otherwise

| Substance Smiles | Cat |
| --- | --- |
| CC/C(=C(/c1ccc(/C=C/C(=O)O)cc1)c1ccc(-c2cnsc2)cc1)c1ccccc1 | False |
| CC/C(=C(/c1ccc(/C=C/C(=O)O)cc1)c1ccc2cncn2c1)c1ccccc1 | False |
| O=C(O)/C=C/c1ccc(/C(=C(\c2ncc(C(F)(F)F)cc2Cl)C2CCC2)c2ccc(N3CCOCC3)cc2)cc1 | False |
| CC/C(=C(/c1ccc(/C=C/C(=O)O)cc1)c1ccc2c(cnn2C)c1)c1ccccc1 | False |
| CC/C(=C(/c1ccc(/C=C/C(=O)O)cc1)c1ccc(-c2cnn(C)c2)cc1)c1ccccc1 | False |
| CC/C(=C(/c1ccc(/C=C/C(=O)O)cc1)c1ccn2nncc2c1)c1ccccc1 | False |
| CC/C(=C(/c1ccc(/C=C/C(=O)O)cc1)c1ccc2ocnc2c1)c1ccccc1 | False |
| N#Cc1ccc(/C(=C(\c2ccc(/C=C/C(=O)O)cc2)c2ccc(-c3cn[nH]c3)cc2)C2CCC2)c(Cl)c1 | True |
| O=C(O)/C=C/c1ccc(/C(=C(\c2ccc(F)cc2Cl)C2CCC2)c2ccc3nccn3c2)cc1 | True |
| O=C(O)/C=C/c1ccc(/C(=C(\c2ccc(F)cc2Cl)C2CCC2)c2ccc(-c3cncs3)cc2)cc1 | True |
| COc1ccc(/C(=C(\c2ccc(/C=C/C(=O)O)cc2)c2ccc(-c3cncs3)cc2)C2CCC2)c(Cl)c1 | True |
| O=C(O)/C=C/c1ccc(/C(=C(\c2ccc(F)cc2Cl)C2CCC2)c2ccc3scnc3c2)cc1 | True |
| COc1ccc(/C(=C(\c2ccc(/C=C/C(=O)O)cc2)c2ccc3scnc3c2)C2CCC2)c(Cl)c1 | True |
| CC/C(=C(/c1ccc(/C=C/C(=O)O)cc1)c1ccc2nccn2c1)c1ccccc1 | False |
| CC/C(=C(/c1ccc(/C=C/C(=O)O)cc1)c1ccc(N2CCOCC2)cc1)c1ccccc1 | False |

* * *

Recorded pEC50, one value per entry.
- Target Or Test System: Estrogen receptor (Homo sapiens, UniProt P03372)
- Sequence (P03372 whole entry): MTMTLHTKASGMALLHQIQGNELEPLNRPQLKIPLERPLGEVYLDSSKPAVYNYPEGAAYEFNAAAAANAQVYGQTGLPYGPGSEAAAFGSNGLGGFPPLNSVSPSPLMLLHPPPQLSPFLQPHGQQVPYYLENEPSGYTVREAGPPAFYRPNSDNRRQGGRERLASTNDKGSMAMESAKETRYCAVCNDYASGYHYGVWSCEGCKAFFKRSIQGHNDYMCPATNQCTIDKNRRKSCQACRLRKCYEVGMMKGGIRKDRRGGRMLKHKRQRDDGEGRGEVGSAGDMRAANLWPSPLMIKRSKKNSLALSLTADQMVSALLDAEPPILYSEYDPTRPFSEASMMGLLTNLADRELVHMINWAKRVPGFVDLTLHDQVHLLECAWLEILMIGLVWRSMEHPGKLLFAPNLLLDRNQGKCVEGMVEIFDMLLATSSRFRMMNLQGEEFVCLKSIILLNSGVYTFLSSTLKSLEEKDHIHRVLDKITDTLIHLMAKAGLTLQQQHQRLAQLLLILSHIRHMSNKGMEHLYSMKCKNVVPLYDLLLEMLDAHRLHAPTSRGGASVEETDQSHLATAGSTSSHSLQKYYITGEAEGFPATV
- Test Details: Induction of ERalpha degradation in human MCF7 cells in phenol red free RPMI medium containing 5% charcoal-stripped FBS incubated for 4 hrs by IRDye 800CW/DRAQ5 dye based in-cell Western assay
pEC50: −log10 of the molar value.

| Substance Smiles | Target Or Test System | pEC50 |
| --- | --- | --- |
| O=C(O)/C=C/c1ccc(/C(=C(\c2ccccc2)C2CCC2)c2ccc(-c3cn[nH]c3)cc2)cc1 | Estrogen receptor (Homo sapiens, UniProt P03372) | 8.68 |
| COc1ccc(/C(=C(\c2ccc(/C=C/C(=O)O)cc2)c2ccc(-c3cncs3)cc2)C2CCC2)c(Cl)c1 | Estrogen receptor (Homo sapiens, UniProt P03372) | 9.10 |
| CC/C(=C(/c1ccc(/C=C/C(=O)O)cc1)c1ccc2nccn2c1)c1ccccc1 | Estrogen receptor (Homo sapiens, UniProt P03372) | 7.12 |
| COc1ccc(/C(=C(\c2ccc(/C=C/C(=O)O)cc2)c2ccc3scnc3c2)C2CCC2)c(Cl)c1 | Estrogen receptor (Homo sapiens, UniProt P03372) | 9.40 |

* * *

- Test Details: Half life in CD-1 mouse at 3 mg/kg, iv
- Format: ADME, organism-based
- Stated Conditions: CD-1, mouse, in vivo

| Substance Smiles | half-life, h |
| --- | --- |
| COc1ccc(/C(=C(\c2ccc(/C=C/C(=O)O)cc2)c2ccc3scnc3c2)C2CCC2)c(Cl)c1 | 3.2 |
| CC/C(=C(/c1ccc(/C=C/C(=O)O)cc1)c1ccc2[nH]ncc2c1)c1ccc(F)cc1Cl | 4.6 |
| COc1ccc(/C(=C(\c2ccc(/C=C/C(=O)O)cc2)c2ccc(N3CCOCC3)cc2)C2CCC2)c(Cl)c1 | 2.9 |

* * *

Recorded clearance, one value per entry.
- Test Details: Plasma clearance in CD-1 mouse at 3 mg/kg, iv
- Format: ADME, organism-based
Property Name: clearance (mL/min/kg)

| Substance Smiles | Property Name | Quantity Unit | Recorded Value |
| --- | --- | --- | --- |
| COc1ccc(/C(=C(\c2ccc(/C=C/C(=O)O)cc2)c2ccc(N3CCOCC3)cc2)C2CCC2)c(Cl)c1 | clearance | mL/min/kg | 5.1 |
| COc1ccc(/C(=C(\c2ccc(/C=C/C(=O)O)cc2)c2ccc3scnc3c2)C2CCC2)c(Cl)c1 | clearance | mL/min/kg | 1.8 |

* * *

- Test Details: Oral bioavailability in CD-1 mouse at 10 mg/kg administered at truncated timecourse (1, 4, 24 hrs)
- Format: ADME, organism-based
- Stated Conditions: in vivo
Property Name: bioavailability (%)

| Substance Smiles | Quantity Unit | Recorded Value |
| --- | --- | --- |
| COc1ccc(/C(=C(\c2ccc(/C=C/C(=O)O)cc2)c2ccc(-c3cn[nH]c3)cc2)C2CCC2)c(Cl)c1 | % | 52 |

* * *

- Test Details: Half life in CD-1 mouse at 2 mg/kg, iv administered as cassette dose
- Format: ADME, organism-based
- Stated Conditions: in vivo

| Substance Smiles | Quantity Unit | half-life |
| --- | --- | --- |
| COc1ccc(/C(=C(\c2ccc(/C=C/C(=O)O)cc2)c2ccc(-c3cn[nH]c3)cc2)C2CCC2)c(Cl)c1 | h | 3 |

* * *

Recorded pEC50, one value per entry.
- Target Or Test System: Estrogen receptor (Homo sapiens, UniProt P03372)
- Test Details: Induction of ERalpha degradation in human MCF7 cells in phenol red free RPMI medium containing 5% charcoal-stripped FBS incubated for 4 hrs by IRDye 800CW/DRAQ5 dye based in-cell Western assay
pEC50: −log10 of the molar value.
Property Name: pEC50

| Substance Smiles | Target Or Test System | Property Name | Bound Type | Recorded Value |
| --- | --- | --- | --- | --- |
| O=C(O)/C=C/c1ccc(/C(=C(\c2ccccc2)C2CCC2)c2ccc3scnc3c2)cc1 | Estrogen receptor (Homo sapiens, UniProt P03372) | pEC50 | = | 8.23 |
| O=C(O)/C=C/c1ccc(/C(=C(\c2ncc(C(F)(F)F)cc2Cl)C2CCC2)c2ccc(-c3cncs3)cc2)cc1 | Estrogen receptor (Homo sapiens, UniProt P03372) | pEC50 | = | 8.85 |
| CC/C(=C(/c1ccc(/C=C/C(=O)O)cc1)c1ccn2ccnc2c1)c1ccccc1 | Estrogen receptor (Homo sapiens, UniProt P03372) | pEC50 | < | 6.30 |
| CC/C(=C(/c1ccc(/C=C/C(=O)O)cc1)c1ccc(-c2cscn2)cc1)c1ccccc1 | Estrogen receptor (Homo sapiens, UniProt P03372) | pEC50 | = | 7.43 |
| O=C(O)/C=C/c1ccc(/C(=C(\c2ccc(C(F)(F)F)cc2Cl)C2CCC2)c2ccc3nccn3c2)cc1 | Estrogen receptor (Homo sapiens, UniProt P03372) | pEC50 | = | 8.82 |
| CC/C(=C(/c1ccc(/C=C/C(=O)O)cc1)c1ccc2c(cnn2C)c1)c1ccccc1 | Estrogen receptor (Homo sapiens, UniProt P03372) | pEC50 | = | 6.85 |
| CC/C(=C(/c1ccc(/C=C/C(=O)O)cc1)c1ccc2nncn2c1)c1ccccc1 | Estrogen receptor (Homo sapiens, UniProt P03372) | pEC50 | < | 6.30 |
| N#Cc1ccc(/C(=C(\c2ccc(/C=C/C(=O)O)cc2)c2ccc(-c3cncs3)cc2)C2CCC2)c(Cl)c1 | Estrogen receptor (Homo sapiens, UniProt P03372) | pEC50 | = | 8.74 |
| N#Cc1cc(Cl)ccc1/C(=C(\c1ccc(/C=C/C(=O)O)cc1)c1ccc2nccn2c1)C1CCC1 | Estrogen receptor (Homo sapiens, UniProt P03372) | pEC50 | = | 8.37 |
| COc1ccc(/C(=C(\c2ccc(/C=C/C(=O)O)cc2)c2ccc(N3CCOCC3)cc2)C2CCC2)c(Cl)c1 | Estrogen receptor (Homo sapiens, UniProt P03372) | pEC50 | = | 9.22 |
| CC/C(=C(/c1ccc(/C=C/C(=O)O)cc1)c1ccc2cncn2c1)c1ccccc1 | Estrogen receptor (Homo sapiens, UniProt P03372) | pEC50 | = | 6.59 |
| O=C(O)/C=C/c1ccc(/C(=C(\c2ccc(C(F)(F)F)cc2Cl)C2CCC2)c2ccc(N3CCOCC3)cc2)cc1 | Estrogen receptor (Homo sapiens, UniProt P03372) | pEC50 | = | 8.72 |
| CC/C(=C(/c1ccc(/C=C/C(=O)O)cc1)c1ccc(-c2cn[nH]c2)cc1)c1ccccc1 | Estrogen receptor (Homo sapiens, UniProt P03372) | pEC50 | = | 7.92 |
| CC/C(=C(/c1ccc(/C=C/C(=O)O)cc1)c1ccc2ocnc2c1)c1ccccc1 | Estrogen receptor (Homo sapiens, UniProt P03372) | pEC50 | = | 6.34 |
| N#Cc1ccc(/C(=C(\c2ccc(/C=C/C(=O)O)cc2)c2ccc3scnc3c2)C2CCC2)c(Cl)c1 | Estrogen receptor (Homo sapiens, UniProt P03372) | pEC50 | = | 9.10 |
| O=C(O)/C=C/c1ccc(/C(=C(\c2ccccc2)C2CCC2)c2ccc(-c3cncs3)cc2)cc1 | Estrogen receptor (Homo sapiens, UniProt P03372) | pEC50 | = | 8.77 |
| CC/C(=C(/c1ccc(/C=C/C(=O)O)cc1)c1ccc(N2CCN(C)CC2)cc1)c1ccccc1 | Estrogen receptor (Homo sapiens, UniProt P03372) | pEC50 | = | 7.05 |
| N#Cc1cc(Cl)ccc1/C(=C(\c1ccc(/C=C/C(=O)O)cc1)c1ccc(N2CCOCC2)cc1)C1CCC1 | Estrogen receptor (Homo sapiens, UniProt P03372) | pEC50 | = | 8.30 |

Cited source: ChEMBL document CHEMBL4330100
